Every entry's value here was drawn from patent US7718808B2.

REPORTED_ENDPOINT: melting point

Answered examples (6):
{"SMI": "COc1ccc(C(=O)Nc2nc(-c3ccco3)c(C(=O)c3ccccn3)s2)c(OC)n1", "RESULT": "201 to 202 °C"}
{"SMI": "O=C(CN1CCC(O)CC1)Nc1nc(-c2ccco2)c(C(=O)C2CCOCC2)s1", "RESULT": "178 to 180 °C"}
{"SMI": "COCCNC(=O)Nc1nc(-c2ccco2)c(C(=O)c2ccccn2)s1", "RESULT": "150 to 151 °C"}
{"SMI": "CC(C)(O)C(=O)Nc1nc(-c2ccco2)c(C(=O)c2ccccc2)s1", "RESULT": "153 to 154 °C"}
{"SMI": "O=C(Nc1nc(-c2ccco2)c(C(=O)c2ccccn2)s1)c1ccc2c(c1)OCCO2", "RESULT": "189 to 191 °C"}
{"SMI": "O=C(Nc1nc(-c2ccco2)c(C(=O)C2CCOCC2)s1)c1ccc(F)cc1", "RESULT": "131 to 132 °C"}

**Query** // returns reported melting point for input O=C(Nc1nc(-c2ccco2)c(C(=O)C2CCOCC2)s1)c1cccc(F)c1
**Result** 229 to 231 °C

**Query** Now this one: O=C(Cc1ccccc1)Nc1nc(-c2ccco2)c(C(=O)C2CCOCC2)s1
**Result** 140 to 142 °C

---

The following compounds are shown together with reported melting point values.

{"COMPOUND": "O=C(Nc1nc(-c2ccco2)c(C(=O)C2CCOCC2)s1)c1ccc(C(F)(F)F)nc1 [Compound 505]", "melting point": "217 to 222 °C"}
{"COMPOUND": "O=C(Nc1nc(-c2ccco2)c(C(=O)c2ccc(N3CCOCC3)nc2)s1)c1ccncc1 [Compound 324]", "melting point": "195 to 205 °C"}
{"COMPOUND": "O=C1CCC(C(=O)c2sc(NC(=O)c3ccco3)nc2-c2ccco2)CC1 [Compound 450]", "melting point": "232 to 235 °C"}

From here, focus on the item given below.
**Query** // returns reported melting point for input COc1ccc(-c2sc(NC(=O)c3ccccc3)nc2-c2ccco2)cc1 [Compound 119]
**Result** 90 to 98 °C

---

The following molecules are shown together with reported melting point values.

{"SMI": "O=C(Nc1nc(-c2ccco2)c(C(=O)c2ccccn2)s1)c1ccoc1", "melting point": "187 to 189 °C"}

From here, focus on the item given below.
**Query** // returns reported melting point for input O=C(CN1CCC(N2CCOCC2)CC1)Nc1nc(-c2ccco2)c(C(=O)C2CCOCC2)s1
**Result** 193 to 195 °C

---

The following molecules are shown together with reported melting point values.

Answered examples (8):
{"MOLECULE": "CCCC(=O)c1sc(NC(=O)C2CC2)nc1-c1ccco1", "RESULT": "170 to 172 °C"}
{"MOLECULE": "O=C(c1ccccn1)c1sc(NC(=O)C2COc3ccccc3O2)nc1-c1ccco1 (stereo not drawn)", "RESULT": "103 to 104 °C"}
{"MOLECULE": "O=C(Nc1nc(-c2ccco2)c(C(=O)C2CCOCC2)s1)c1cccc(OC(F)(F)F)c1", "RESULT": "197 to 198 °C"}
{"MOLECULE": "CC(C)C(=O)c1sc(N)nc1-c1ccco1", "RESULT": "195 to 199 °C"}
{"MOLECULE": "Cc1cncc(C(=O)Nc2nc(-c3ccco3)c(C(=O)C3CCOCC3)s2)c1", "RESULT": "239 to 243 °C"}
{"MOLECULE": "COC1CCC(C(=O)c2sc(NC(=O)c3ccc(C#N)cc3)nc2-c2ccco2)CC1 (stereo not drawn)", "RESULT": "105 to 109 °C"}
{"MOLECULE": "CC(C)(O)CN1CCN(CC(=O)Nc2nc(-c3ccco3)c(C(=O)C3CCOCC3)s2)CC1", "RESULT": "106 to 108 °C"}
{"MOLECULE": "Cc1ccc(C(=O)c2sc(NC(=O)c3ccco3)nc2-c2ccco2)cn1", "RESULT": "197 to 209 °C"}

From here, focus on the item given below.
**Query** // returns reported melting point for input O=C(Nc1nc(-c2ccco2)c(C(=O)C2CCOCC2)s1)C1CC1
**Result** 182 to 183 °C
